// provenance: patent US20130217582

Biological target: Coagulation factor IXa (FIXa) (Homo sapiens, UniProt P00740;P00740 P00740:47-191,P00740:227-461)
Sequence (P00740 47-191, chain 1 of 2): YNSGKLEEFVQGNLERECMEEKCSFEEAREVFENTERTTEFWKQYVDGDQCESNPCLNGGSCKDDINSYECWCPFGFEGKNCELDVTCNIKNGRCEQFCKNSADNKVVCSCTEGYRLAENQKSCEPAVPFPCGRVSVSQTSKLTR
Sequence (P00740 227-461, chain 2 of 2): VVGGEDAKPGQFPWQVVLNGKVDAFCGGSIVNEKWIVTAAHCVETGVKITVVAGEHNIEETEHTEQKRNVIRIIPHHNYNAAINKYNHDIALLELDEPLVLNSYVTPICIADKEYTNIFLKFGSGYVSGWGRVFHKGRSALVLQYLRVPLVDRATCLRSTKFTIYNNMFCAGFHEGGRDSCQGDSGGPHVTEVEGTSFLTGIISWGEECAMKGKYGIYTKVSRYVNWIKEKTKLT
Experiment: EMSA; estimated by mobility shift compared to a known FIXa aptamer; native PAGE 4 C; T7 transcript starts with GG before F5
Details: tags: Haematologic Technologies; immobilized on con-A beads for partitioning; putative G/U quadruplex
Would you mind telling me the reported Kd of each entry?

// each listed binder needs a value for Kd
1. FIXa aptamer rank 1 (SEQ 133/150) (ssRNA) RNA: ACGACGCUCUUCCGAUCUAUGGUUCCAGUCGGUGAACUUCCUGAGUCCGGUGUGUGCAAGCUAACGGAGCUCGUAUGC
2. FIXa aptamer rank 3 (SEQ 122/152) (ssRNA) RNA: ACGACGCUCUUCCGAUCUAUGGUCAUACGCGCAGGCUGGAGGUAUUACCCCCCGGGCAAGCUAACGGAGCUCGUAUGC
3. FIXa aptamer rank 2 (SEQ 114/151) (ssRNA) RNA: ACGACGCUCUUCCGAUCUAUGGAGGGCAGCCCGGUAGUCGCCCACGGGGAACGCGUCAAGCUAACGGAGCUCGUAUGC

Reply |
1. ~0.22 µM
2. ~0.7 µM
3. ~0.22 µM
